Quick reference for log10 of TT among some molecules
- Tested on: Rattus norvegicus
- EXPERIMENT_SUMMARY: Thrombin time was determined after (iv) bolus dose of 0.75 mg/kg followed by an infusion of 50 ug/kg/min in rat arterial thrombosis model
- Type: functional
The base-10 logarithm of TT, taken with TT in s, is what appears here.

Some molecules with known log10 of TT results, for comparison:
SMILES_STRUCTURE: N[C@H]1CC[C@H](CNC(=O)[C@@H]2CC[C@H]3CN(S(=O)(=O)C(c4ccccc4)c4ccccc4)CC(=O)N32)CC1
SUBJECT_OF_TEST: Rattus norvegicus
MEASURED_METRIC: log10 of TT
MEASURED: 2.33
//
SMILES_STRUCTURE: N/C(=N/O)N1CCC(CNC(=O)[C@@H]2CC[C@H]3CN(S(=O)(=O)C(c4ccccc4)c4ccccc4)CC(=O)N32)CC1
SUBJECT_OF_TEST: Rattus norvegicus
MEASURED_METRIC: log10 of TT
MEASURED: 2.36
//
SMILES_STRUCTURE: N[C@H]1CC[C@H](CNC(=O)[C@@H]2CC[C@H]3CN(S(=O)(=O)CC(c4ccccc4)c4ccccc4)CC(=O)N32)CC1
SUBJECT_OF_TEST: Rattus norvegicus
MEASURED_METRIC: log10 of TT
MEASURED: 2.18
//
SMILES_STRUCTURE: N=C(N)[C@H]1CC[C@H](CNC(=O)[C@@H]2CC[C@H]3CN(S(=O)(=O)C(c4ccccc4)c4ccccc4)CC(=O)N32)CC1
SUBJECT_OF_TEST: Rattus norvegicus
MEASURED_METRIC: log10 of TT
MEASURED: 2.86
//
SMILES_STRUCTURE: N=C(N)c1ccc(CNC(=O)[C@@H]2CC[C@H]3CN(S(=O)(=O)CC(c4ccccc4)c4ccccc4)CC(=O)N32)cc1
SUBJECT_OF_TEST: Rattus norvegicus
MEASURED_METRIC: log10 of TT
MEASURED: 2.80
//
SMILES_STRUCTURE: N=C(N)c1ccc(CNC(=O)[C@@H]2CC[C@H]3CN(S(=O)(=O)C(c4ccccc4)c4ccccc4)CC(=O)N32)cc1
SUBJECT_OF_TEST: Rattus norvegicus
MEASURED_METRIC: log10 of TT
MEASURED: 2.80

Form entry - test system: Rattus norvegicus; read-out: log10 of TT; molecule: `N/C(=N/O)N1CCC(CNC(=O)[C@@H]2CC[C@H]3CN(S(=O)(=O)CC(c4ccccc4)c4ccccc4)CC(=O)N32)CC1`
2.17

Give Rattus norvegicus log10 of TT for `N/C(=N/O)N1CCC(CNC(=O)[C@@H]2CC[C@H]3CN(S(=O)(=O)CCc4ccccc4)CC(=O)N32)CC1`
2.16

Hello, I am looking for reported log10 of TT with Rattus norvegicus for `N=C(N)N1CCC(CNC(=O)[C@@H]2CC[C@H]3CN(C(=O)CC(c4ccccc4)c4ccccc4)CC(=O)N32)CC1` . Could you help?
1.93

Please state recorded log10 of TT (tested on Rattus norvegicus) of `N=C(N)N1CCC(CNC(=O)[C@@H]2CC[C@H]3CN(S(=O)(=O)C(c4ccccc4)c4ccccc4)CC(=O)N32)CC1`
2.19

Missing value: log10 of TT, Rattus norvegicus, entry `Nc1ccc(CNC(=O)[C@@H]2CC[C@H]3CN(S(=O)(=O)CC(c4ccccc4)c4ccccc4)CC(=O)N32)cn1` . Fill in?
1.71

Could you share what log10 of TT was measured for `N=C(N)N1CCC(CNC(=O)[C@@H]2CC[C@H]3CN(S(=O)(=O)CC(c4ccccc4)c4ccccc4)CC(=O)N32)CC1` , tested on Rattus norvegicus?
2.33

Identify the measured log10 of TT of `Cc1cc(C(=N)N)ccc1CNC(=O)[C@@H]1CC[C@H]2CN(S(=O)(=O)C(c3ccccc3)c3ccccc3)CC(=O)N21` for Rattus norvegicus.
2.55

Item: `Cc1nc(N)ccc1CNC(=O)[C@@H]1CC[C@H]2CN(S(=O)(=O)C(c3ccccc3)c3ccccc3)CC(=O)N21` Test system: Rattus norvegicus Read-out: log10 of TT Value: ?
2.01

Tell me reported log10 of TT for `N/C(=N/O)N1CCC(CNC(=O)[C@@H]2CC[C@H]3CN(C(=O)CC(c4ccccc4)c4ccccc4)CC(=O)N32)CC1` , tested with Rattus norvegicus.
1.80

Ref: ChEMBL document CHEMBL1135284
